test system: hGRP-receptor (Homo sapiens)
Sequence (P30550 whole entry): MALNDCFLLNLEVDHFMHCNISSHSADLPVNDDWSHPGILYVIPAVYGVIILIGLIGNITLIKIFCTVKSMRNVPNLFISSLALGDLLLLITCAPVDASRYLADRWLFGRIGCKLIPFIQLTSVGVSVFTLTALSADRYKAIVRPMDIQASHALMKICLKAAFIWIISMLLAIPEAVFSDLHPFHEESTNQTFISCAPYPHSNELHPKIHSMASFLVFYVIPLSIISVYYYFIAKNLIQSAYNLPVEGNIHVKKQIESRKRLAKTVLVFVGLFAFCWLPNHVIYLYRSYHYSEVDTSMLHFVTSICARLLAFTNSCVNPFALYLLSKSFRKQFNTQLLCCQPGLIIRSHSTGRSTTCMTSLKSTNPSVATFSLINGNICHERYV
experiment: [3H]inositol phosphate generation, HuTu-80 cells
Assay type: cell-based
Square brackets hold non-standard residues; d marks the D form. Peptide text beside a SMILES is read from it. dPhe(F5) = N[C@H](Cc1c(F)c(F)c(F)c(F)c1F)C(=O)O
molecules and their reported pIC50
# pIC50: negative log10 of molar concentration; output just the value

// known answers, use as guide
| molecule | measure | recorded result |
| --- | --- | --- |
| CSCC[C@H](NC(=O)[C@H](CC(C)C)NC(=O)[C@@H](Cc1ccccc1)NC(=O)CNC(=O)[C@@H](NC(=O)[C@H](C)NC(=O)[C@H](Cc1c[nH]c2ccccc12)NC(=O)[C@H](CCC(N)=O)NC(=O)[C@H](CC(N)=O)NC(=O)CNC(=O)[C@H](Cc1ccc(O)cc1)NC(=O)[C@H](CCCNC(=N)N)NC(=O)[C@H](CCC(N)=O)NC(=O)[C@@H]1CCC(=O)N1)C(C)C)C(N)=O [Peptide 2, [Tyr^4, D-Phe^12]Bn] | pIC50 | 5.09 |
| COC(=O)[C@H](CC(C)C)NC(=O)[C@H](Cc1c[nH]cn1)NC(=O)[C@@H](C)NC(=O)[C@@H](NC(=O)[C@H](C)NC(=O)[C@H](Cc1c[nH]c2ccccc12)NC(=O)[C@H](CCC(N)=O)NC(=O)[C@H](N)Cc1c(F)c(F)c(F)c(F)c1F)C(C)C [Peptide 18] (H-[dPhe(F5)]QWAV[dA]HL-OMe) | pIC50 | 8.38 |
| CCCCCCNC(=O)[C@H](CC(C)C)NC(=O)[C@H](Cc1cnc[nH]1)NC(=O)CNC(=O)[C@@H](NC(=O)[C@H](C)NC(=O)[C@H](Cc1c[nH]c2ccccc12)NC(=O)[C@H](CCC(N)=O)NC(=O)[C@H](N)Cc1ccccc1)C(C)C [Peptide 15, [D-Phe^6]Bn-(6-13)Hexylamide] | pIC50 | 6.69 |
| COC(=O)[C@H](CC(C)C)NC(=O)[C@H](Cc1c[nH]cn1)NC(=O)CNC(=O)[C@@H](NC(=O)[C@H](C)NC(=O)[C@H](Cc1c[nH]c2ccccc12)NC(=O)[C@H](CCC(N)=O)NC(=O)[C@H](N)Cc1ccccc1)C(C)C [Peptide 17, [D-Phe^6]Bn-(6-13)Methyl ester (ME)] | pIC50 | 7.96 |
| CCCNC(=O)[C@H](CC(C)C)NC(=O)[C@H](Cc1c[nH]cn1)NC(=O)CNC(=O)[C@@H](NC(=O)[C@H](C)NC(=O)[C@H](Cc1c[nH]c2ccccc12)NC(=O)[C@H](CCC(N)=O)NC(=O)[C@H](N)Cc1ccccc1)C(C)C [Peptide 11, [D-Phe^6-Bn](6-13)Propylamide (PA)] | pIC50 | 7.44 |

# evaluate next
Input line: Record lookup: for hGRP-receptor (Homo sapiens), what pIC50 belongs to CC(C)C[C@H](NC(=O)[C@H](CC(C)C)NC(=O)[C@@H](Cc1c[nH]c2ccccc12)NC(=O)[C@H](Cc1ccccc1)NC(=O)[C@@H](Cc1c[nH]c2ccccc12)NC(=O)[C@H](CCC(N)=O)NC(=O)[C@H](CCC(N)=O)NC(=O)[C@@H]1CCCN1C(=O)[C@H](CCCCN)NC(=O)[C@@H]1CCCN1C(=O)[C@H](N)CCCN=C(N)N)C(N)=O [Peptide 3, [D-Arg^1, D-Trp^7,9, Leu^11]SP] (H-[dR]PKPQQ[dW]F[dW]LL-NH2) ?
Output line: 5.08

Reference for the values: paper PMC2766550
